# Test Method Notes: growth inhibitors of H69AR lung tumor, primary screen, human, duplicate replicates (AID 580);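 also: 100% = mean luminescence of untreated wells and 0% = no signal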
# Cond: H69AR lung tumor cells viability, ATP luminescence, 72 h; at 10 µM; stronger effect = lower value
Measured Property: viability (%)
Lab book: enter the figure in %, no units written.

query: Recorded viability for `CC(C)Cn1c(=O)c(C2=NS(=O)(=O)c3ccccc3N2)c(O)c2ccccc21` , please?
result: 98.1

query: For Cn1c2c(c(=O)n(C)c1=O)C(c1cccc(Br)c1)C1C(=O)c3ccccc3C1=N2 (stereo not given) then?
result: 40.6

====

Listing of recorded growth inhibition by entry.
# Test Method Notes: Restrictive medium S. cerevisiae growth inhibition, OD615, pilot screen of yeast lifespan reduction project, restrictive growth control (AID 706);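 also: modified DeaD lifespan yeast strain shifted to restrictive glucose medium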
# Cond: OD615, 48 h, at 10 µM, stronger effect = higher value
Lab book: enter the figure in %, no units written.

// worked examples, growth inhibition included
>  <Compound>
COC(=O)C(C(=O)OC)C(C(=O)OC)C(C(=O)OC)C(=O)OC

>  <growth inhibition (%)>
-6.78

$$$$
>  <Compound>
COc1ccccc1-n1c(SC)nc(O)cc1=O

>  <growth inhibition (%)>
-7.61

$$$$
>  <Compound>
CCN(CCCNS(=O)(=O)c1ccc2c(c1)CCN2C(C)=O)c1cccc(C)c1

>  <growth inhibition (%)>
9.51

$$$$
>  <Compound>
O=C(C1CC(c2ccc(F)cc2)=NO1)N1CCc2ccccc2C1 (stereo not given)

>  <growth inhibition (%)>
-7.89

$$$$
>  <Compound>
CC(C)N(Cc1ccccc1)C(=O)c1cnc2n(c1=O)CCS2

>  <growth inhibition (%)>
-28.5

$$$$

query: Recorded growth inhibition for `COc1ccc(C(=O)N(Cc2nc(-c3ccc(C)cc3)no2)C(C)C)cc1OC` , please?
result: -6.13

query: For COc1ccc(C2CC(C(F)(F)F)n3nc(C(=O)O)c(Cl)c3N2)cc1OC (stereo not given) then?
result: -1.92

query: For CCN(CC)CCCN1C(=O)C(O)=C(C(C)=O)C1c1ccc(OC)cc1OC (stereo not given) then?
result: -3.67

query: For `N#Cc1cccc(NC(=O)NCCc2c[nH]c3ccccc23)c1` then?
result: 1.5

query: For `O=C(NCc1cn2ccsc2n1)c1c(F)cccc1Cl` then?
result: -8.81

query: For `Cc1ccccc1-n1c(Cn2c(=O)sc3ccccc32)nnc1SCC(=O)Nc1nccs1` then?
result: -13

query: For COc1ccccc1C1C=C(c2ccccc2)Nc2nnnn21 (stereo not given) then?
result: 4.88

query: For `O=C(NCc1ccccn1)c1nnc(Cc2ccc(Cl)cc2)o1` then?
result: 2.66

Values from PubChem BioAssay
